Assay: Therapeutic index, IC50 for human MT2 cells to EC50 for HIV1 3B
Assay type: cell-based
Settings: read-out: Ratio IC50/EC50
// boundary case: selectivity ratio equal to 30000 maps to NO; strictly smaller maps to YES

Solved cases (4 shown):
| compound | class.label |
| --- | --- |
| C=C(C)[C@@H]1CC[C@]2(C(=O)O)CC[C@]3(C)[C@H](CC[C@@H]4[C@@]5(C)CC[C@H](OC(=O)CCC(C)(C)C(=O)O)C(C)(C)[C@@H]5CC[C@]43C)[C@@H]12 | YES |
| C=C(C)[C@@H]1CC[C@]2(C(=O)O)CC[C@]3(C)[C@H](CC[C@@H]4[C@@]5(C)CC[C@H](OC(=O)[C@@H]6CCC[C@H]6C(=O)O)C(C)(C)[C@@H]5CC[C@]43C)[C@@H]12 | YES |
| C=C(C)[C@@H]1CC[C@]2(C(=O)O)CC[C@]3(C)[C@H](CC[C@@H]4[C@@]5(C)CC[C@H](OC(=O)CC(C)(CC)C(=O)O)C(C)(C)[C@@H]5CC[C@]43C)[C@@H]12 (stereo not given in full) | NO |
| C=C(C)[C@@H]1CC[C@]2(C(=O)O)CC[C@]3(C)[C@H](CC[C@@H]4[C@@]5(C)CC[C@H](OC(=O)C[C@H](C)C(=O)O)C(C)(C)[C@@H]5CC[C@]43C)[C@@H]12 | YES |

Let's switch to this compound now.
Exam item: Report whether reported selectivity ratio is lower than 30000 (strictly) for C=C(C)[C@@H]1CC[C@]2(C(=O)O)CC[C@]3(C)[C@H](CC[C@@H]4[C@@]5(C)CC[C@H](OC(=O)CC(C)(C)C(=O)O)C(C)(C)[C@@H]5CC[C@]43C)[C@@H]12 [BEVIRIMAT]
Marked response: NO

----------
Test: Therapeutic index, IC50 for human MT2 cells to EC50 for HIV1 3B
Format: cell-based
Settings: read-out: Ratio IC50/EC50
As shown below, each of these compounds has a reported selectivity ratio value.
Lab note: jot down the number only; don't add units.

| compound.structure | measurement |
| --- | --- |
| C=C(C)[C@@H]1CC[C@]2(C(=O)O)CC[C@]3(C)[C@H](CC[C@@H]4[C@@]5(C)CC[C@H](OC(=O)/C=C(/C)C(=O)O)C(C)(C)[C@@H]5CC[C@]43C)[C@@H]12 | 236 |

Exam item: Please look at this compound and report its selectivity ratio: C=C(C)[C@@H]1CC[C@]2(C(=O)O)CC[C@]3(C)[C@H](CC[C@@H]4[C@@]5(C)CC[C@H](OC(=O)C[C@@H](C)C(=O)O)C(C)(C)[C@@H]5CC[C@]43C)[C@@H]12
Marked response: 365

Exam item: Please look at this compound and report its selectivity ratio: C=C(C)[C@@H]1CC[C@]2(C(=O)O)CC[C@]3(C)[C@H](CC[C@@H]4[C@@]5(C)CC[C@H](OC(=O)[C@@H]6CCCC[C@H]6C(=O)O)C(C)(C)[C@@H]5CC[C@]43C)[C@@H]12
Marked response: 2.4

----------
As shown below, each of these compounds has a reported pEC50 value.
System: Human immunodeficiency virus 1
Assay: Antiviral activity against HIV1 3B infected in human MT2 cells assessed as inhibition of viral replication treated 1 day after infection measured on after 4 days postinfection by p24 antigen ELISA
Assay type: functional, organism-based
Settings: Human immunodeficiency virus 1, 3B
Just the number, please; pEC50 means minus log10 of the concentration in mol/L.

Some entries whose results are on file:
| compound | pEC50 |
| --- | --- |
| C=C(C)[C@@H]1CC[C@]2(C(=O)O)CC[C@]3(C)[C@H](CC[C@@H]4[C@@]5(C)CC[C@H](OC(=O)CC(C)(C)C(=O)O)C(C)(C)[C@@H]5CC[C@]43C)[C@@H]12 | 8.89 |
| C=C(C)[C@@H]1CC[C@]2(C(=O)O)CC[C@]3(C)[C@H](CC[C@@H]4[C@@]5(C)CC[C@H](OC(=O)/C=C(/C)C(=O)O)C(C)(C)[C@@H]5CC[C@]43C)[C@@H]12 | 6.74 |
| C=C(C)[C@@H]1CC[C@]2(C(=O)O)CC[C@]3(C)[C@H](CC[C@@H]4[C@@]5(C)CC[C@H](OC(=O)C[C@H](C)C(=O)O)C(C)(C)[C@@H]5CC[C@]43C)[C@@H]12 | 8.06 |
| C=C(C)[C@@H]1CC[C@]2(C(=O)O)CC[C@]3(C)[C@H](CC[C@@H]4[C@@]5(C)CC[C@H](OC(=O)C[C@@H](C)C(=O)O)C(C)(C)[C@@H]5CC[C@]43C)[C@@H]12 | 6.92 |
| C=C(C)[C@@H]1CC[C@]2(C(=O)O)CC[C@]3(C)[C@H](CC[C@@H]4[C@@]5(C)CC[C@H](OC(=O)[C@@H]6CCCC[C@H]6C(=O)O)C(C)(C)[C@@H]5CC[C@]43C)[C@@H]12 | 4.76 |

Exam item: Please look at this compound and report its pEC50: C=C(C)[C@@H]1CC[C@]2(C(=O)O)CC[C@]3(C)[C@H](CC[C@@H]4[C@@]5(C)CC[C@H](OC(=O)[C@@H]6CCC[C@H]6C(=O)O)C(C)(C)[C@@H]5CC[C@]43C)[C@@H]12
Marked response: 5.66

Exam item: Please look at this compound and report its pEC50: C=C(C)[C@@H]1CC[C@]2(C(=O)O)CC[C@]3(C)[C@H](CC[C@@H]4[C@@]5(C)CC[C@H](OC(=O)CCC(C)(C)C(=O)O)C(C)(C)[C@@H]5CC[C@]43C)[C@@H]12
Marked response: 7.32

Exam item: Please look at this compound and report its pEC50: C=C(C)[C@@H]1CC[C@]2(C(=O)O)CC[C@]3(C)[C@H](CC[C@@H]4[C@@]5(C)CC[C@H](OC(=O)CC(C)(CC)C(=O)O)C(C)(C)[C@@H]5CC[C@]43C)[C@@H]12 (stereo partly drawn)
Marked response: 9.22
